Value source: PubChem BioAssay (NCATS)

Assay: Quantitative High-Throughput drug screen in 47 multiple myeloma cell lines against the NCATS MIPE library collection: LP1_DSMZ cell viability assay (AID 1918982); further: nearly all actives have a fitted effect of over 35% in size
Settings: LP1 myeloma viability, CellTiter-Glo ATP luminescence, 48 h; series mostly up to 45.8 µM
Results filed as inconclusive are left out. Activity calls are given as the source filed them. The call rests on the fitted dose curve; in most records, active means well fitted cell-killing curve with a large enough effect; inconclusive means small, poorly fitted or top-dose-only effect, or effect the other way; inactive means no such curve, though single readings can be large or run the other way.
Labels: y for active, n for inactive

> print(dat)
                            compound.smiles  class
1                         NC(=O)c1cccc(N)c1      n
2     COc1cc(NS(=O)(=O)c2ccc(N)cc2)nc(OC)n1      n
3              O=C(O)c1cc(=O)[nH]c(=O)[nH]1      n
4  C[C@]12C=CC(=O)C=C1CC[C@@H]1[C@@H]2C(=O)C[C@@]2(C)[C@H]1CC[C@]2(O)C(=O)CO      n
5  Nc1nc(F)nc2c1ncn2[C@@H]1O[C@H](CO)[C@@H](O)[C@@H]1O      y
6         O=P(O)(O)C(O)(Cc1cccnc1)P(=O)(O)O      n

----------
Tested on: P93_24
Assay: qHTS profiling for inhibitors of Plasmodium falciparum proliferation (AID 504749); further: nearly all actives have a fitted effect of over 60% in size
Conditions: P. falciparum in erythrocytes, SYBR Green DNA, 72 h; series mostly up to 28.7 µM
Records with an inconclusive call do not appear. The source made the active and inactive calls. The call rests on the fitted dose curve; in most records, active means well fitted inhibition curve with a large enough effect; inconclusive means small, poorly fitted or top-dose-only effect; inactive means flat fitted curve, though single readings scatter.
Classes used: T (active), F (inactive)

> print(dat)
                                    molecule  subject.of.test  class
 1       CCN(C)C(=O)Oc1cccc([C@H](C)N(C)C)c1           P93_24      F
 2  COc1cc2c(Nc3ccc(Br)cc3F)ncnc2cc1OCC1CCN(C)CC1           P93_24      T
 3                  CCCN[C@H]1CCc2nc(N)sc2C1           P93_24      F
 4                       CCCc1cc(C(N)=S)ccn1           P93_24      F
 5  CC[C@H](C)C(=O)O[C@H]1C[C@@H](C)C=C2C=C[C@H](C)[C@H](CC[C@@H]3C[C@@H](O)CC(=O)O3)[C@H]21           P93_24      F
 6       COC(=O)Nc1nc2ccc(Sc3ccccc3)cc2[nH]1           P93_24      F
 7  CCC(C)(C)c1ccc(CC(C)CN2C[C@@H](C)O[C@@H](C)C2)cc1 (stereo partly specified)           P93_24      F
 8  COc1ccc2cc3[n+](cc2c1OC)CCc1cc2c(cc1-3)OCO2           P93_24      T
 9         CNCC[C@H](Oc1cccc2ccccc12)c1cccs1           P93_24      T
10              CC(C)Cn1cnc2c(N)nc3ccccc3c21           P93_24      F
11     CNS(=O)(=O)Cc1ccc2[nH]cc(CCN(C)C)c2c1           P93_24      F
12                            NC(=O)c1cccnc1           P93_24      F
13  Cc1oc(=O)oc1CN1CCN(c2cc3c(cc2F)c(=O)c(C(=O)O)c2n3C(C)S2)CC1 (stereo unspecified)           P93_24      T
14  C[C@@H](NCCCc1cccc(C(F)(F)F)c1)c1cccc2ccccc12           P93_24      T
15          Cc1noc(NS(=O)(=O)c2ccc(N)cc2)c1C           P93_24      F
16  C1CCC(C(CC2CCCCN2)C2CCCCC2)CC1 (stereo unspecified)           P93_24      T

----------
System: CP291
Assay: qHTS profiling for inhibitors of Plasmodium falciparum proliferation (AID 504749); further: nearly all actives have a fitted effect of over 60% in size; further: potency means the concentration at half of the fitted maximal effect
Settings: P. falciparum in erythrocytes, SYBR Green DNA, 72 h; series mostly up to 28.7 µM
Records with an inconclusive call do not appear. Calls of active or inactive are those of the source. Calls follow the shape of the dose curve; as a rule, active = well fitted inhibition curve with a large enough effect; inconclusive = small, poorly fitted or top-dose-only effect; inactive = flat fitted curve, though single readings scatter.
property_measured: Potency

> print(dat)
                                   compound  subject.of.test  property.measured    reported.value
1           Cc1ccnc2c1NC(=O)c1cccnc1N2C1CC1            CP291            Potency          inactive
2              NCCCC(O)(P(=O)(O)O)P(=O)(O)O            CP291            Potency          inactive
3  CN(CCOc1ccc(CC2SC(=O)NC2=O)cc1)c1ccccn1 (stereo not drawn)            CP291            Potency          inactive
4                   CCCCOc1ccc(CC(=O)NO)cc1            CP291            Potency  3.22 µM (active)
5  CN1CCN(c2c(F)cc3c(=O)c(C(=O)O)cn4c3c2OCN4C)CC1            CP291            Potency          inactive
6  CCOc1cc(N)c(Cl)cc1C(=O)NCC1CN(Cc2ccc(F)cc2)CCO1 (stereo not drawn)            CP291            Potency    12 µM (active)
7                   NC(N)=NC(N)=NCCc1ccccc1            CP291            Potency          inactive
8                   CC1=NN(c2ccccc2)C(=O)C1            CP291            Potency          inactive

----------
Tested on: 7G8
Assay: qHTS profiling for inhibitors of Plasmodium falciparum proliferation (AID 504749); further: nearly all actives have a fitted effect of over 60% in size
Details: P. falciparum in erythrocytes, SYBR Green DNA, 72 h; series mostly up to 28.7 µM
Results filed as inconclusive are left out. Activity calls are given as the source filed them. The call rests on the fitted dose curve; in most records, active means well fitted inhibition curve with a large enough effect; inconclusive means small, poorly fitted or top-dose-only effect; inactive means flat fitted curve, though single readings scatter.
Classes used: class 1 (active), class 0 (inactive)

> print(dat)
                                    molecule    class
 1          Cc1noc(NS(=O)(=O)c2ccc(N)cc2)c1C  class 0
 2  O=c1oc2c(O)c(O)cc3c(=O)oc4c(O)c(O)cc1c4c23  class 1
 3          CCCCCCNC(=O)n1cc(F)c(=O)[nH]c1=O  class 1
 4                   CC1=NN(c2ccccc2)C(=O)C1  class 0
 5  CC[C@H](C)C(=O)O[C@H]1C[C@@H](C)C=C2C=C[C@H](C)[C@H](CC[C@@H]3C[C@@H](O)CC(=O)O3)[C@H]21  class 0
 6                   CCCCOc1ccc(CC(=O)NO)cc1  class 1
 7           Cc1nnc(NS(=O)(=O)c2ccc(N)cc2)s1  class 0
 8                  O=NN(CCCl)C(=O)NC1CCCCC1  class 0
 9  CCOCC(O)COc1ccc(NC(=O)CC[S+](C)C)cc1 (centres undefined)  class 0
10       COc1ncnc(NS(=O)(=O)c2ccc(N)cc2)c1OC  class 0
11  CN1CCN(c2c(F)cc3c(=O)c(C(=O)O)cn4c3c2OCN4C)CC1  class 0
12  COc1cc2c(Nc3ccc(Br)cc3F)ncnc2cc1OCC1CCN(C)CC1  class 1
13  C[C@@H](NCCCc1cccc(C(F)(F)F)c1)c1cccc2ccccc12  class 1
14  Cc1oc(=O)oc1CN1CCN(c2cc3c(cc2F)c(=O)c(C(=O)O)c2n3C(C)S2)CC1 (centres undefined)  class 1

----------
Assay: qHTS of pediatric cancer cell lines to identify multiple opportunities for drug repurposing: Primary screen for U-2 OS cells (AID 1347096); further: nearly all actives have a fitted effect of over 50% in size
Conditions: U-2 OS viability, CellTiter-Glo luminescence, 48 h; series mostly up to 46 µM
Inconclusive results are not listed. Activity calls are given as the source filed them. Calls come from the whole dose curve; as a rule, active = well fitted cell-killing curve with a large enough effect; inconclusive = small, poorly fitted or top-dose-only effect; inactive = flat fitted curve, though single readings scatter.
Outcomes: T for active, F for inactive

> print(dat)
                                    molecule  class
 1  CC(N)C12CC3CC(CC(C3)C1)C2 (centres undefined)      F
 2   N=C(N)c1ccc(OCCCCCOc2ccc(C(=N)N)cc2)cc1      F
 3                             O=S(=O)(O)CCS      F
 4                           NNC(=O)c1ccncc1      F
 5  COc1c(N2CCNC(C)C2)c(F)cc2c(=O)c(C(=O)O)cn(C3CC3)c12 (centres undefined)      F
 6  CCC(=O)O[C@]1(C(=O)CCl)[C@@H](C)C[C@H]2[C@@H]3CCC4=CC(=O)C=C[C@]4(C)[C@@]3(F)[C@@H](O)C[C@@]21C      F
 7  O=C(O)CCn1c2c(c3ccccc31)C[C@H](NS(=O)(=O)c1ccc(F)cc1)CC2      F
 8  CCc1c2c(nc3ccc(OC(=O)N4CCC(N5CCCCC5)CC4)cc13)-c1cc3c(c(=O)n1C2)COC(=O)[C@]3(O)CC      F
 9  CCN(CC)CC#CCOC(=O)C(O)(c1ccccc1)C1CCCCC1 (centres undefined)      F
10  CCCCS(=N)(=O)CCC(N)C(=O)O (centres undefined)      F
11  CC(C(=O)O)c1ccc2c(c1)CC(=O)c1ccccc1S2 (centres undefined)      F
12       COC(=O)Nc1nc2ccc(Sc3ccccc3)cc2[nH]1      T
13  C[C@@H]1C[C@H]2[C@@H]3CCC4=CC(=O)C=C[C@]4(C)[C@@]3(Cl)[C@@H](O)C[C@]2(C)[C@@]1(OC(=O)c1ccco1)C(=O)CCl      T
14                    S=P(N1CC1)(N1CC1)N1CC1      F
15                       CCCc1cc(C(N)=S)ccn1      F
16             Nc1nc(N)nc(-c2cc(Cl)ccc2Cl)n1      F
17  CO[C@@H]1[C@@H](OC(N)=O)[C@@H](O)[C@H](Oc2ccc3c(O)c(NC(=O)c4ccc(O)c(CC=C(C)C)c4)c(=O)oc3c2C)OC1(C)C      F
18     COc1cc(NS(=O)(=O)c2ccc(N)cc2)nc(OC)n1      F
19  O=C(O)c1cn(C2CC2)c2cc(N3CCNCC3)c(F)cc2c1=O      F
